Measured kd accompanies every entry in the list below.
Tested On: MfANGPTL4(1-130)-His
Sequence (as listed by the source): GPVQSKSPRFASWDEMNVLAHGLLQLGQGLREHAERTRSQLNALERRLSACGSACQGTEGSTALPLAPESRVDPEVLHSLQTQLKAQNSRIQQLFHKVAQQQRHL
Assay Summary: BIACORE, full mAb or Fab over amino-coupled MfANGPTL4(1-130)-His
Type: binding, cynomolgus monkey
Cond: pH 5.75, 25° C.

H1H268P Fab: Fab fragment of H1H268P prepared by papain digestion (antibody, V domains shown) VH: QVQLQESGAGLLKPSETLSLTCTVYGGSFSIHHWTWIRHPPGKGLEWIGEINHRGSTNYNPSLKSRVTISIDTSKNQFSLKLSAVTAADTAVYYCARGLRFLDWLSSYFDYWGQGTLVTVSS VL: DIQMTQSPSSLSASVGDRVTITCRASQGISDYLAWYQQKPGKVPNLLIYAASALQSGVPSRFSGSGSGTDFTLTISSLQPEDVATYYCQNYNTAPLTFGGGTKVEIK ... 0.00432 s⁻¹

Looking up H1H284P Fab: Fab fragment of H1H284P prepared by papain digestion (antibody, V domains shown) VH: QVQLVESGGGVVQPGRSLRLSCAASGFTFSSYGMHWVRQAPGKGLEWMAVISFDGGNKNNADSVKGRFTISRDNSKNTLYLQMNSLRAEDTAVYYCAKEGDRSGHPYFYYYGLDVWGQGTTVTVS VL: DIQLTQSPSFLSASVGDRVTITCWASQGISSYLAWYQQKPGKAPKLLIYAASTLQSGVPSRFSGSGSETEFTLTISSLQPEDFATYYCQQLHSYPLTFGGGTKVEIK , I found its kd recorded as 0.00619 s⁻¹

Looking up H1H268P: anti-hANGPTL4 antibody, hIgG1 isotype, HCVR/LCVR SEQ ID NOs 42/44 (antibody, V domains shown) VH: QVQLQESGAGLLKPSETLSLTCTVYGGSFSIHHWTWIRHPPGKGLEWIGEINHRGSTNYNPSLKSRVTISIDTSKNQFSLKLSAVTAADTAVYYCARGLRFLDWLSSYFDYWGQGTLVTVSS VL: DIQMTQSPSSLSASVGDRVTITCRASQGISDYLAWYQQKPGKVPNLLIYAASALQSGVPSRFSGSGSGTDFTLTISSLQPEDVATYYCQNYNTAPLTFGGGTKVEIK , I found its kd recorded as 8.24e-05 s⁻¹

Looking up H1H284P: anti-hANGPTL4 antibody, hIgG1 isotype, HCVR/LCVR SEQ ID NOs 90/92 (antibody, V domains shown) VH: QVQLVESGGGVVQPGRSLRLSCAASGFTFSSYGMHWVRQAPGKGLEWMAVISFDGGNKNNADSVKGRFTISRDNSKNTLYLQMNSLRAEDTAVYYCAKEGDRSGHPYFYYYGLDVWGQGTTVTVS VL: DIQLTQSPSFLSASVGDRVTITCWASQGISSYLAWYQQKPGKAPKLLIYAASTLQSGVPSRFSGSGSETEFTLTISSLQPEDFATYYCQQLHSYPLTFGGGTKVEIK , I found its kd recorded as 8.42e-05 s⁻¹
